assay-name: Drug excretion in Wistar rat feces at 750 mg/kg, po after 12 hrs by HPLC-UV analysis
Assay type: ADME, organism-based
Parameters: dose 750 mg/kg, route oral
condition-label: in vivo
outcome-measure: Drug excretion

>>> assay_value("COc1cc(O)c2c(=O)c(OC)c(-c3ccc(OC)c(OC)c3)oc2c1")
"Active"
>>> assay_value("COc1ccc(-c2cc(=O)c3c(OC)cc(OC)cc3o2)cc1")
"Active"
>>> assay_value("COc1cc(O)c2c(=O)cc(-c3ccccc3)oc2c1")
"Active"
>>> assay_value("COc1cc(OC)c2c(=O)c(OC)c(-c3ccc(OC)c(OC)c3)oc2c1")
"Active"
>>> assay_value("COc1cc(O)c2c(=O)c(OC)c(-c3ccccc3)oc2c1")
"Active"
>>> assay_value("COc1cc(OC)c2c(=O)cc(-c3ccccc3)oc2c1")
"Active"

Check the records and state Drug excretion for COc1ccc(-c2oc3cc(OC)cc(O)c3c(=O)c2OC)cc1
Active

###

assay-name: Cmax in Wistar rat at 250 mg/kg, po by HPLC analysis
Format: ADME, organism-based
Set-up: dose 250 mg/kg, route oral
condition-label: in vivo
The reader will find reported Cmax values listed item by item below.
Give just the numeric value; ng/mL need not be written.

Check the records and state Cmax for COc1ccc(-c2cc(=O)c3c(OC)cc(OC)cc3o2)cc1
880

Check the records and state Cmax for COc1cc(OC)c2c(=O)c(OC)c(-c3ccc(OC)c(OC)c3)oc2c1
550

Check the records and state Cmax for COc1cc(OC)c2c(=O)cc(-c3ccccc3)oc2c1
780

###

assay-name: Tmax in Wistar rat lung at 750 mg/kg, po by LC-MS/MS analysis
Format: ADME, organism-based
Set-up: dose 750 mg/kg, route oral
outcome-measure: Tmax (h)
Give just the numeric value; h need not be written.

>>> assay_value("COc1ccc(-c2cc(=O)c3c(OC)cc(OC)cc3o2)cc1")
1.76

Check the records and state Tmax for COc1cc(OC)c2c(=O)cc(-c3ccccc3)oc2c1
1.2

Check the records and state Tmax for COc1cc(OC)c2c(=O)c(OC)c(-c3ccc(OC)c(OC)c3)oc2c1
0.08

###

assay-name: Tmax in Wistar rat testes at 750 mg/kg, po by LC-MS/MS analysis
Type: ADME, organism-based, Testis
Set-up: dose 750 mg/kg, route oral
The reader will find reported Tmax values listed item by item below.
Give just the numeric value; h need not be written.

Consider the reported Tmax for these compounds:
>>> assay_value("COc1cc(OC)c2c(=O)c(OC)c(-c3ccc(OC)c(OC)c3)oc2c1")
2.36
>>> assay_value("COc1cc(OC)c2c(=O)cc(-c3ccccc3)oc2c1")
2.86

Now examine the next entry.
Check the records and state Tmax for COc1ccc(-c2cc(=O)c3c(OC)cc(OC)cc3o2)cc1
3.14

###

The reader will find reported k el values listed item by item below.
assay-name: Elimination rate constant in Wistar rat at 250 mg/kg, iv by HPLC analysis
Assay type: ADME, organism-based
Set-up: dose 250 mg/kg, route intravenous
condition-label: Wistar, in vivo, read-out: Ke (converted)
Give just the numeric value; s⁻¹ need not be written.

>>> assay_value("COc1ccc(-c2cc(=O)c3c(OC)cc(OC)cc3o2)cc1")
"8.89e-05"

Check the records and state k el for COc1cc(OC)c2c(=O)cc(-c3ccccc3)oc2c1
8.89e-05
